target: UniProt:P05186; assay: TNAP enzyme activity modulation, counter to mouse IAP activators, SAR follow-up, selectivity assay for mouse IAP activator project, biochemical, set 2 (AID 588605); settings: SAR counter-screen for mouse IAP activators
Sequence (P05186 whole entry, looked up): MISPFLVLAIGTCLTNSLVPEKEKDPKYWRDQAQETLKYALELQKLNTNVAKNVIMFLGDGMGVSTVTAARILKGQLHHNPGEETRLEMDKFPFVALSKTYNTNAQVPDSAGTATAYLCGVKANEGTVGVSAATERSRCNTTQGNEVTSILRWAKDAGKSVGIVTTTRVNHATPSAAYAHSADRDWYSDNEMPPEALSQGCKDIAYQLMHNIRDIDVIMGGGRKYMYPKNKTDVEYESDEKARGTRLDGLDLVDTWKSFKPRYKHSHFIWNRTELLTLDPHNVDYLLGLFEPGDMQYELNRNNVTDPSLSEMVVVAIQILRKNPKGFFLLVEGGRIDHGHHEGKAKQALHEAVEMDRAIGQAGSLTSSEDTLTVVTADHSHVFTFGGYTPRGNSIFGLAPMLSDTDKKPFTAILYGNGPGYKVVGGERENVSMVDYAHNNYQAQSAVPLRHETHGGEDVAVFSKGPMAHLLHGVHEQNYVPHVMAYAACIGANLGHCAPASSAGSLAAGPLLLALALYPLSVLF
The source made the active and inactive calls. No rule for the calls is given here.
Can you answer with just one of these options? active, inactive

Examples from the recorded data:
INSERT INTO measurements (smiles_repr, qualitative_label) VALUES
  ('CN(C)S(=O)(=O)c1cccc(NC(=S)NCc2ccc(Cl)cc2)c1', 'active'),
  ('CN(C)S(=O)(=O)c1cccc(NC(=S)NCCc2ccccc2)c1', 'active'),
  ('CN(C)S(=O)(=O)c1ccc(NC(=S)NCCc2cccc(O)c2)cc1', 'inactive'),
  ('CN(C)S(=O)(=O)c1cccc(NC(=S)NC(C)(C)CC(C)(C)C)c1', 'active');

**Q:** // param item: Cc1ccc(S(=O)(=O)N(C)C)cc1NC(=S)NCCCn1ccnc1 ; yields the recorded call
**A:** inactive

* * *

target: Alkaline phosphatase, tissue-nonspecific isozyme (Homo sapiens); assay: TNAP enzyme activity modulation, counter to mouse IAP activators, SAR follow-up, selectivity assay for mouse IAP activator project, biochemical, set 2 (AID 588605); conditions: SAR counter-screen for mouse IAP activators
Active and inactive are the calls of the source. How the calls were made is not given here.
Can you answer with just one of these options? true (1) for active, false (0) for inactive

Examples from the recorded data:
INSERT INTO results (smiles_repr, system_under_test, qualitative_label) VALUES
  ('CN(C)CC(C)(C)CNC(=S)Nc1cccc(S(=O)(=O)N(C)C)c1', 'Alkaline phosphatase, tissue-nonspecific isozyme (Homo sapiens)', 'false (0)'),
  ('CC1CCN(S(=O)(=O)c2ccc(NC(=S)NC(c3ccccc3)c3ccccc3)cc2)CC1', 'Alkaline phosphatase, tissue-nonspecific isozyme (Homo sapiens)', 'false (0)');

**Q:** // param item: CN(C)S(=O)(=O)c1ccc(NC(=S)NCCN2CCCC2)cc1 ; yields the recorded call
**A:** false (0)

**Q:** // query: Cc1ccc(S(=O)(=O)N(C)C)cc1NC(=S)NC(=O)C12CC3CC(CC(C3)C1)C2
**A:** false (0)

**Q:** // query: CN(C)S(=O)(=O)c1ccc(NC(=S)NC(c2ccccc2)c2ccccc2)cc1
**A:** true (1)

**Q:** // query: CCN(CC)S(=O)(=O)c1ccc(NC(=S)NCC(c2ccccc2)c2ccccc2)cc1
**A:** true (1)
